biological target: Somatostatin receptor type 3 (Homo sapiens, UniProt P32745); assay: Antagonist activity at human SSTR3 expressed in HEK293 cells assessed as [Tyr1]-somatostatin 14-induced beta-arrestin recruitment pre-incubated for 30 mins before [Tyr1]-somatostatin 14 stimulation for 90 or 180 mins by chemiluminescence method
Sequence (P32745 whole entry): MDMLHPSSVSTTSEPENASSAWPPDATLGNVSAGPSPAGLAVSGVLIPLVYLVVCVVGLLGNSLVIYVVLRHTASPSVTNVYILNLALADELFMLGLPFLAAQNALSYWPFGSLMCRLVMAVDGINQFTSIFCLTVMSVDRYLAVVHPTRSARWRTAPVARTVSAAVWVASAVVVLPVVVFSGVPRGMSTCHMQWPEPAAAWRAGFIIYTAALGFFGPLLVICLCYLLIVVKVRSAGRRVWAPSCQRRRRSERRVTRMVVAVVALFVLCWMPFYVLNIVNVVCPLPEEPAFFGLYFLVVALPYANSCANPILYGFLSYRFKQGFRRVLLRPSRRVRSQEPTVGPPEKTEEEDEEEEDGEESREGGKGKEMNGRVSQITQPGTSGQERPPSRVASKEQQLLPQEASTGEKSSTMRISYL
Square brackets hold non-standard residues; d marks the D form. Peptide text beside a SMILES is read from it. * marks the point of attachment. X4 = CC[C@H](C)[C@@H](OC(=O)[C@H](Cc1ccccc1)N(C)C)C(=O)*; X3 = CC[C@H](C)[C@@H](OC(=O)/C=C\c1ccccc1)C(=O)*; X2 = CC[C@H](C)[C@@H](OC(=O)CCc1ccccc1)C(=O)*; dNMeF = CN[C@H](Cc1ccccc1)C(=O)O; NMeL = CN[C@@H](CC(C)C)C(=O)O; dHiv = CC(C)[C@@H](O)C(=O)O
Measured IC50 by item
READOUT_KIND: IC50

{"columns": ["COMPOUND", "READOUT_KIND", "MEASURED_VALUE"],
 "data": [
  ["CC[C@H](C)[C@@H](OC(=O)CCc1ccccc1)C(=O)N1CCC[C@H]1C(=O)NCC(=O)N(C)[C@@H](CC(C)C)C(=O)N[C@@H](C)C(=O)N(C)[C@H](Cc1ccccc1)C(=O)N1CCC[C@H]1C(=O)OC (X2-PG[NMeL]A[dNMeF]P-OMe)", "IC50", "> 20 µM"],
  ["CC[C@H](C)[C@@H](OC(=O)/C=C\\c1ccccc1)C(=O)N1CCC[C@H]1C(=O)NCC(=O)N(C)[C@@H](CC(C)C)C(=O)N[C@@H](C)C(=O)N(C)[C@H](Cc1ccccc1)C(=O)N1CCC[C@H]1C(=O)OC (X3-PG[NMeL]A[dNMeF]P-OMe)", "IC50", "> 20 µM"],
  ["COC(=O)[C@@H]1CCCN1C(=O)[C@@H](Cc1ccccc1)N(C)C(=O)[C@H](C)NC(=O)[C@H](CC(C)C)N(C)C(=O)CNC(=O)[C@@H]1CCCN1C(=O)[C@H](O)C(C)C (H-[dHiv]PG[NMeL]A[dNMeF]P-OMe)", "IC50", "> 20 µM"],
  ["CC[C@H](C)[C@@H](OC(=O)[C@H](Cc1ccccc1)N(C)C)C(=O)N1CCC[C@H]1C(=O)NCC(=O)N(C)[C@@H](CC(C)C)C(=O)N[C@@H](C)C(=O)N(C)[C@H](Cc1ccccc1)C(=O)N1CCC[C@H]1C(=O)OC (X4-PG[NMeL]A[dNMeF]P-OMe)", "IC50", "6.11 µM"]
]}
